system: chloroquine-resistant K1 strain of P. falciparum; assay: In vitro antimalarial semiautomated microdilution assay ([3H]-hypoxanthine incorporation), K1 strain; format: cell-based, Plasmodium falciparum; conditions: Plasmodium falciparum, K1, 72 h, read-out: IC50 (ng/ml) K1, chloroquine-resistant K1 strain, 72 h incubation
Where a name gives a salt, the structure may show the parent alone.
Property name: log10 of IC50 (log10 of the value in ng/mL)

• Fc1ccc(NC2CCC3(CC2)OOC2(O3)C3CC4CC(C3)CC2C4)cc1 (centres unmarked) = 0.30
• O=C(OCCn1ccnc1)C1CCC2(CC1)OOC1(O2)C2CC3CC(C2)CC1C3 (centres unmarked) = 0.65
• COC(=O)c1ncn(C[C@H]2CC[C@]3(CC2)OOC2(O3)C3CC4CC(C3)CC2C4)n1 (some centres unmarked) = 0.48
• COCC(=O)N(Cc1ccccc1)C1CCC2(CC1)OOC1(O2)C2CC3CC(C2)CC1C3 (centres unmarked) = 1.76
• FC1(c2ccccc2)CCC2(CC1)OOC1(O2)C2CC3CC(C2)CC1C3 (centres unmarked) = 0.71
• COC(=O)C1(c2ccccc2)CCC2(CC1)OOC1(O2)C2CC3CC(C2)CC1C3 (centres unmarked) = 0.36
• O=S(=O)(Cc1ccccc1)N1CCC2(CC1)OOC1(O2)C2CC3CC(C2)CC1C3 (centres unmarked) = 0.23
• O=C(NC[C@H]1CC[C@]2(CC1)OOC1(O2)C2CC3CC(C2)CC1C3)c1ccccc1C(=O)NC[C@H]1CC[C@]2(CC1)OOC1(O2)C2CC3CC(C2)CC1C3 (some centres unmarked) = 0.59
• CN(C)S(=O)(=O)N1CCC2(CC1)OOC1(O2)C2CC3CC(C2)CC1C3 (centres unmarked) = -0.80
• NC(=O)CN(CC(N)=O)C[C@H]1CC[C@]2(CC1)OOC1(O2)C2CC3CC(C2)CC1C3 (some centres unmarked) = 0.30
• c1cn(C[C@H]2CC[C@]3(CC2)OOC2(O3)C3CC4CC(C3)CC2C4)cn1 (some centres unmarked) [OZ179, hydrochloride] = 0.11
• C(CNC1CCC2(CC1)OOC1(O2)C2CC3CC(C2)CC1C3)CN1CCOCC1 (centres unmarked) = -0.40
• NC(=O)CCNC[C@H]1CC[C@]2(CC1)OO[C@]1(O2)C2CC3CC(C2)CC1C3 = -0.39
• CN1CCN(C(=O)N2CCC3(CC2)OOC2(O3)C3CC4CC(C3)CC2C4)CC1 (centres unmarked) = -0.70
• N=C(N)N1CCC2(CC1)OOC1(O2)C2CC3CC(C2)CC1C3 (centres unmarked) [OZ191, hydrochloride] = 0.78
• CN(C)C(=O)N1CCC2(CC1)OOC1(O2)C2CC3CC(C2)CC1C3 (centres unmarked) = -0.15
• S=C(Nc1ccccc1)N1CCC2(CC1)OOC1(O2)C2CC3CC(C2)CC1C3 (centres unmarked) = 0.15
• CN(C)C[C@H]1CC[C@]2(CC1)OOC1(O2)C2CC3CC(C2)CC1C3 (some centres unmarked) = -0.52
• NC(=O)CNC(=O)C[C@H]1CC[C@]2(CC1)OO[C@]1(O2)C2CC3CC(C2)CC1C3 = 0.59
• COC(=O)c1ncnn1C[C@H]1CC[C@]2(CC1)OOC1(O2)C2CC3CC(C2)CC1C3 (some centres unmarked) = 0.23
• C1CC1CNC1CCC2(CC1)OOC1(O2)C2CC3CC(C2)CC1C3 (centres unmarked) [OZ184, hydrochloride] = 0.00
• O=C1c2ccccc2C(=O)N1C[C@H]1CC[C@@]2(CC1)OOC1(O2)C2CC3CC(C2)CC1C3 (some centres unmarked) = 0.83
• O=C1CNC(=O)N1C[C@H]1CC[C@]2(CC1)OOC1(O2)C2CC3CC(C2)CC1C3 (some centres unmarked) = 0.00
• c1ccc2c(c1)OCCC21OOC2(O1)C1CC3CC(C1)CC2C3 (centres unmarked) = -0.06
• O=C(CN1C(=O)c2ccccc2C1=O)N1CCC2(CC1)OOC1(O2)C2CC3CC(C2)CC1C3 (centres unmarked) = 0.52
• C1CCN(C2CCC3(CC2)OOC2(O3)C3CC4CC(C3)CC2C4)CC1 (centres unmarked) [OZ159, hydrochloride] = -0.15
• N=C(N)NN=C1CCC2(CC1)OOC1(O2)C2CC3CC(C2)CC1C3 (centres unmarked) [OZ172, hydrochloride] = 0.54
• COCC(=O)N1CCC2(CC1)OOC1(O2)C2CC3CC(C2)CC1C3 (centres unmarked) = -0.02
• O=C1CCC(=O)N1C[C@H]1CC[C@]2(CC1)OOC1(O2)C2CC3CC(C2)CC1C3 (some centres unmarked) = 0.00
• O=C(NO)[C@H]1CC[C@]2(CC1)OOC1(O2)C2CC3CC(C2)CC1C3 (some centres unmarked) = 0.62
• O=C(O)c1ccc([C@H]2CC[C@]3(CC2)OOC2(O3)C3CC4CC(C3)CC2C4)cc1 (some centres unmarked) = 1.59
